The reported numbers originate from the supplement of paper PMC6555819.

Catalogue of PBM binding z-score readings, one per entry.
tested on: LXRa:RXRa (NR concentration 270 nM, RXRa partner concentration 90 nM); assay: PBM binding z-score (relative to random genomic background probes); higher = stronger binding; sequences stand for … in GC…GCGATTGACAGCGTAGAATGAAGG

sequence-text	PBM binding z-score
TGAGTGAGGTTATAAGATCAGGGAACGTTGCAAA	1.07
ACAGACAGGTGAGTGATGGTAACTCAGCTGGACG	0.668
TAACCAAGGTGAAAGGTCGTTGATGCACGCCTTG	3.34
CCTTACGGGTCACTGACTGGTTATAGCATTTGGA	3.75
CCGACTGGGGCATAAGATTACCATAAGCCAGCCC	-0.33
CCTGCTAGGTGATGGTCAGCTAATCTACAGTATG	-0.646
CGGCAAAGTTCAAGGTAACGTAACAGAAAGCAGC	5.26
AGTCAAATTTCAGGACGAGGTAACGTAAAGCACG	-0.145
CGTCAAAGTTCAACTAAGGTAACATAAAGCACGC	6.17
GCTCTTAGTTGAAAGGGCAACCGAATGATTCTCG	0.538
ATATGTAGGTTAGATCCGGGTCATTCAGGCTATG	2.3
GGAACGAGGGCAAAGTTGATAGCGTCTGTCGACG	1.07
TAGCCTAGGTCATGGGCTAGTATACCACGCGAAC	3.22
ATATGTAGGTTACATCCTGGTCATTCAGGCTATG	2.03
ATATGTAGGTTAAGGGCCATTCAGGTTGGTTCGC	0.989
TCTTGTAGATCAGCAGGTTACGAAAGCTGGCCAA	-0.119
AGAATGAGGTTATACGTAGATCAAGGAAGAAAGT	2.22
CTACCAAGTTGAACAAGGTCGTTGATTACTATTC	1.41
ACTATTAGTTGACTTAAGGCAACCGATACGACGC	0.299
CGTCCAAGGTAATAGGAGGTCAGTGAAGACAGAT	5.47
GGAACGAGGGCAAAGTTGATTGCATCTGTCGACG	0.976
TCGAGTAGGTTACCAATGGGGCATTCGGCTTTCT	1.22
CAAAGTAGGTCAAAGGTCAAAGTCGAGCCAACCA	7.21
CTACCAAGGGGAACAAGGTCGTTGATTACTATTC	0.398
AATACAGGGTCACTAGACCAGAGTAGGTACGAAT	4.72
TCTGCTAGGTCAACGATGGTGAGCTAATCTGCTA	1.8

###

test system: PPARg DBDmut:RXRa IVT, anti-PPARg (DBD mutation: PPARg1 K132A/R137A, NR concentration 270 nM, RXRa partner concentration 90 nM); test: PBM binding z-score (relative to random genomic background probes); higher = stronger binding; sequences stand for … in GC…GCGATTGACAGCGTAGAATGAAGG
The threshold is inclusive: PBM binding z-score of exactly 0.2 counts as TRUE; values below receive FALSE.

sequence-text	category-label
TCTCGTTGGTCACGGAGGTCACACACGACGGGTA	TRUE
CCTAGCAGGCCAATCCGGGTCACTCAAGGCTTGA	FALSE
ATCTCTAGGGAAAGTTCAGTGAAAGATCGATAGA	TRUE
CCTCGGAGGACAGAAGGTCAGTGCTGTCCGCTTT	FALSE
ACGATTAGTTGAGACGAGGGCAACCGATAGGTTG	TRUE
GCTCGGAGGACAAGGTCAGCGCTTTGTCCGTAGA	FALSE
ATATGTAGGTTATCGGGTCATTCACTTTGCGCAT	TRUE
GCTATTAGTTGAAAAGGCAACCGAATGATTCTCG	TRUE
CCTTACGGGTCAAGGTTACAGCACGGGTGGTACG	TRUE
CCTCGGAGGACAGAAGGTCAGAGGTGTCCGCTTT	FALSE
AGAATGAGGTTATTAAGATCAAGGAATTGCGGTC	TRUE

###

system: RARb:RXRa (NR concentration 270 nM, RXRa partner concentration 90 nM); assay: PBM binding z-score (relative to random genomic background probes); higher = stronger binding; sequences stand for … in GC…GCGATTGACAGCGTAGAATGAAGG
readout-type: PBM binding z-score

sequence-text	recorded-value
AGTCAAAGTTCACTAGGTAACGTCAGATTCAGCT	4.88
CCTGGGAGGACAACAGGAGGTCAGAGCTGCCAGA	2.95
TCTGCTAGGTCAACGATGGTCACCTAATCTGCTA	4.2
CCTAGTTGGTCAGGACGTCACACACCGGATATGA	0.721
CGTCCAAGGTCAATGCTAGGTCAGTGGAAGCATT	5.17
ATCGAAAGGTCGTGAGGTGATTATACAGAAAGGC	4.08

###

system: RXRa homodimer (NR concentration 180 nM); assay: PBM binding z-score (relative to random genomic background probes); higher = stronger binding; sequences stand for … in GC…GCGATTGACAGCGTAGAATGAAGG
Field: class. Source value: PBM binding z-score. Ranges: bin A (below 0.4), bin B (0.4 to below 2), bin C (2 or more)

sequence-text	category-label
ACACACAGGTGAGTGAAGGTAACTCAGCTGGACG	bin B
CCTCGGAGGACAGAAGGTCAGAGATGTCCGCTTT	bin B
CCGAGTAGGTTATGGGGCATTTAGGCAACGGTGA	bin B
GCTGCTAGGTCGGGTTGGTCAGCTAACGGGTACG	bin A
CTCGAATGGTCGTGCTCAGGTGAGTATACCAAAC	bin A
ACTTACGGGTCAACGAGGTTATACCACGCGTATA	bin C
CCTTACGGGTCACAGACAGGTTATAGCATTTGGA	bin C
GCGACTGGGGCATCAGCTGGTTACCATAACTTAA	bin A
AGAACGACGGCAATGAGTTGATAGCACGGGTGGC	bin A
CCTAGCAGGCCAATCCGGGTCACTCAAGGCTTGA	bin B
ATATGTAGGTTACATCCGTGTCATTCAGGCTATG	bin B
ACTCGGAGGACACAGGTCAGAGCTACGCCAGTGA	bin C
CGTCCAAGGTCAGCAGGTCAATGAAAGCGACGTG	bin C
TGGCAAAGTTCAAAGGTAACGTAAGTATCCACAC	bin C
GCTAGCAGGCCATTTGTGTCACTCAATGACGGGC	bin A
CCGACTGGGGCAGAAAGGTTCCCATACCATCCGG	bin A
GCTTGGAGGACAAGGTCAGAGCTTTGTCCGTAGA	bin C
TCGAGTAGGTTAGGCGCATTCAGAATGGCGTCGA	bin A
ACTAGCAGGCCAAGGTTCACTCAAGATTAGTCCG	bin B
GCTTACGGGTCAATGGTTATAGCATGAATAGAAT	bin C
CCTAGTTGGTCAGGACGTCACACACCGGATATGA	bin A
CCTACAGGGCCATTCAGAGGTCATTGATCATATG	bin C
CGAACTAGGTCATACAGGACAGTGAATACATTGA	bin C
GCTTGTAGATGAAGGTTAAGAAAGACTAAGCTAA	bin A
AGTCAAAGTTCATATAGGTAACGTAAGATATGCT	bin C
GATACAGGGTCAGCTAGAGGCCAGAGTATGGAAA	bin C
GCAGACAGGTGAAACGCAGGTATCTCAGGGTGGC	bin B
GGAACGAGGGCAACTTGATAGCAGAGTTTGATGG	bin B
ATCTCTTGGTAACAAGTTCAGTGAAAGAGAGGAC	bin B
TTACCACGGTGAAAGGTCGTTGATGCACGCCTTG	bin C
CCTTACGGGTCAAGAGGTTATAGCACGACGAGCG	bin C
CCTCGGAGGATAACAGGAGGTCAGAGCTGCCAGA	bin B
CGAACGAGGGCTTGAGTTGATAGCAAATGCCGAT	bin A
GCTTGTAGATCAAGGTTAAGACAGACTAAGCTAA	bin B
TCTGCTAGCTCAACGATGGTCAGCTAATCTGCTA	bin A
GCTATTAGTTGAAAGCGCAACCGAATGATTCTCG	bin A
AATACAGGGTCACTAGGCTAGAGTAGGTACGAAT	bin C
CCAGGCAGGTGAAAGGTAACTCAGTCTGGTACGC	bin B
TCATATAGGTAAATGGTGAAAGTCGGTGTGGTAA	bin B
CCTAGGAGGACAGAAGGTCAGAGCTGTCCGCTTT	bin B
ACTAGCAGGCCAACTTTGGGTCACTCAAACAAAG	bin B
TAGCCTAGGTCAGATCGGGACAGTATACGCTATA	bin B
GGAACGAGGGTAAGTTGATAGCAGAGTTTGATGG	bin A
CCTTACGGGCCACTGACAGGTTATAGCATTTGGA	bin A
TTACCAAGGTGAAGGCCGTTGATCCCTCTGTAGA	bin A
ACTAGTTGGTCAGATGAGGTCACACACAATTCGG	bin C
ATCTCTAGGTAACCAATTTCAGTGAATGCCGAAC	bin A
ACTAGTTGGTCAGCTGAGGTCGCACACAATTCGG	bin B
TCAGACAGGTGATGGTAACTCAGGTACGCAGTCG	bin B
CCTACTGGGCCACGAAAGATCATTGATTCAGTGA	bin A
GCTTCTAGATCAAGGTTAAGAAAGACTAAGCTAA	bin B
